Tested on: E. coli (derived from ATCC ® 25922 ™)
method: Bacteriostasis, log reduction
Format: cell-based
setupConditions: E. coli ATCC 25922; 24 h
I'd appreciate it if you could supply Log Value values for the items below.

Past entries and their recorded results:
O=c1[nH]c(-c2ccc(-c3ccc(B(O)O)cc3)cc2)nc2c1CSCC2 [Compound 10] : <2.3
COC(=O)NCCOC(C)(C)c1ccc(-c2nc3c(c(=O)[nH]2)CSCC3)cc1 [Compound 18] : <2.3

Okay, next one:
## Task In one line, give reported Log Value of the entry O=c1[nH]c(-c2ccc(B(O)O)cc2)nc2c1CSCC2 [Compound 1] .
## Result <2.3

Hello, the source for this data is patent US20260356860A1, in case you need it.
